Assay: pharmacokinetics, plasma and brain, after IP dose in mice
Assay type: in vivo
Conditions: male, C57BL/6, mouse, brain, ip, 50 mg/kg, brain, 8 hr, male C57BL/6 mice, 3 animals, read-out: brain Concentration Individual
propertyLabel: concentration at 8 hr (ng/g)
Answers are plain numbers, in ng/g.

For the molecule `CC/C=C\C/C=C\C/C=C\C/C=C\C/C=C\C/C=C\CCC(=O)NCC(C)(C)O` , give its reported concentration at 8 hr.
8.94

* * *

Assay: pharmacokinetics, plasma and brain, after IP dose in mice
Assay type: in vivo
Conditions: mouse; plasma; IP 50 mg/kg; male C57BL/6 mice; read-out: Terminal t1/2 (converted)
propertyLabel: half-life (min)
Answers are plain numbers, in min.

For the compound CC/C=C\C/C=C\C/C=C\C/C=C\C/C=C\C/C=C\CCC(=O)NCC(C)(C)O [Compound 1] , give its reported half-life.
42.8

* * *

Test: pharmacokinetics, plasma and brain, after IP dose in mice
Type: in vivo
Conditions: mouse; brain; IP 50 mg/kg; male C57BL/6 mice
propertyLabel: Cmax
Number first, unit second.

For the compound `CC/C=C\C/C=C\C/C=C\C/C=C\C/C=C\C/C=C\CCC(=O)NCC(C)(C)O` , give its reported Cmax.
4710 ng/mL

* * *

Test: pharmacokinetics, plasma and brain, after IP dose in mice
Assay type: in vivo
Settings: mouse; plasma; IP 50 mg/kg; male C57BL/6 mice
propertyLabel: Tmax (min)
Give bare numbers, in min.

For the molecule `CC/C=C\C/C=C\C/C=C\C/C=C\C/C=C\C/C=C\CCC(=O)NCC(C)(C)O` , give its reported Tmax.
30

* * *

Experiment: pharmacokinetics, plasma and brain, after IP dose in mice
Format: in vivo
Details: male, C57BL/6, mouse, brain, ip, 50 mg/kg, brain, 2 hr, male C57BL/6 mice, 3 animals, read-out: brain Concentration Individual
Experimental: Each time point is […], with 11 time points=33 animals. Each time point was done in triplicate (N=3). The brain and plasma from each animal was analyzed. Formulation preparation: • IP: 5% DMAC+5% Solutol HS15+90% Saline • 50 mg/kg, 10 mL/kg […] The IP dosing solution was prepared in 5% DMAC+5% SolutolHS15+90% Saline. Brain was homogenized with 3 volumes (v/w) of PBS (pH7.4) and then analyzed with LC-MS/MS. […]
propertyLabel: concentration at 2 hr
Number first, unit second.

For the molecule `CC/C=C\C/C=C\C/C=C\C/C=C\C/C=C\C/C=C\CCC(=O)NCC(C)(C)O` , give its reported concentration at 2 hr.
1380 ng/g

* * *

Assay: pharmacokinetics, plasma and brain, after IP dose in mice
Type: in vivo
Details: male, C57BL/6, mouse, brain, ip, 50 mg/kg, brain, 0.083 hr, male C57BL/6 mice, 3 animals, read-out: brain Concentration Individual
propertyLabel: concentration at 0.083 hr (ng/g)
One number for each entry, in ng/g.

For the compound CC/C=C\C/C=C\C/C=C\C/C=C\C/C=C\C/C=C\CCC(=O)NCC(C)(C)O [Compound 1] , give its reported concentration at 0.083 hr.
554

* * *

Assay: pharmacokinetics, plasma and brain, after IP dose in mice
Assay type: in vivo
Conditions: male, C57BL/6, mouse, brain, ip, 50 mg/kg, brain, 1 hr, male C57BL/6 mice, 3 animals, read-out: brain Concentration Individual
propertyLabel: concentration at 1 hr (ng/g)
Answers are plain numbers, in ng/g.

For the compound CC/C=C\C/C=C\C/C=C\C/C=C\C/C=C\C/C=C\CCC(=O)NCC(C)(C)O [Compound 1] , give its reported concentration at 1 hr.
3650

* * *

Assay: pharmacokinetics, plasma and brain, after IP dose in mice
Type: in vivo
Conditions: mouse; plasma; IP 50 mg/kg; male C57BL/6 mice
propertyLabel: AUC(0-t) (ng·h/mL)
Give bare numbers, in ng·h/mL.

For the compound `CC/C=C\C/C=C\C/C=C\C/C=C\C/C=C\C/C=C\CCC(=O)NCC(C)(C)O` , give its reported AUC(0-t).
8080

* * *

Experiment: pharmacokinetics, plasma and brain, after IP dose in mice
Format: in vivo
Conditions: mouse; plasma; IP 50 mg/kg; male C57BL/6 mice
propertyLabel: AUC(0-inf)
Number first, unit second.

For the compound `CC/C=C\C/C=C\C/C=C\C/C=C\C/C=C\C/C=C\CCC(=O)NCC(C)(C)O` , give its reported AUC(0-inf).
8080 ng·h/mL

* * *

Test: pharmacokinetics, plasma and brain, after IP dose in mice
Type: in vivo
Conditions: male, C57BL/6, mouse, plasma, ip, 50 mg/kg, plasma, 2 hr, male C57BL/6 mice, 3 animals, read-out: plasma Concentration Individual
propertyLabel: concentration at 2 hr (ng/mL)
Give bare numbers, in ng/mL.

For the molecule `CC/C=C\C/C=C\C/C=C\C/C=C\C/C=C\C/C=C\CCC(=O)NCC(C)(C)O` , give its reported concentration at 2 hr.
1130

* * *

Assay: pharmacokinetics, plasma and brain, after IP dose in mice
Format: in vivo
Conditions: male, C57BL/6, mouse, brain, ip, 50 mg/kg, brain, 3 hr, male C57BL/6 mice, 3 animals, read-out: brain Concentration Individual
propertyLabel: concentration at 3 hr (ng/g)
Numbers only, in ng/g.

For the compound `CC/C=C\C/C=C\C/C=C\C/C=C\C/C=C\C/C=C\CCC(=O)NCC(C)(C)O` , give its reported concentration at 3 hr.
1930

* * *

Assay: pharmacokinetics, plasma and brain, after IP dose in mice
Type: in vivo
Details: male, C57BL/6, mouse, plasma, ip, 50 mg/kg, plasma, 3 hr, male C57BL/6 mice, 3 animals, read-out: plasma Concentration Individual
propertyLabel: concentration at 3 hr

For the molecule `CC/C=C\C/C=C\C/C=C\C/C=C\C/C=C\C/C=C\CCC(=O)NCC(C)(C)O` , give its reported concentration at 3 hr.
321 ng/mL

* * *

Test: pharmacokinetics, plasma and brain, after IP dose in mice
Type: in vivo
Conditions: male, C57BL/6, mouse, plasma, ip, 50 mg/kg, plasma, 0.25 hr, male C57BL/6 mice, 3 animals, read-out: plasma Concentration Individual
propertyLabel: concentration at 0.25 hr (ng/mL)
One number for each entry, in ng/mL.

For the compound CC/C=C\C/C=C\C/C=C\C/C=C\C/C=C\C/C=C\CCC(=O)NCC(C)(C)O [Compound 1] , give its reported concentration at 0.25 hr.
6550

* * *

Experiment: pharmacokinetics, plasma and brain, after IP dose in mice
Assay type: in vivo
Conditions: male, C57BL/6, mouse, brain, ip, 50 mg/kg, brain, 0.25 hr, male C57BL/6 mice, 3 animals, read-out: brain Concentration Individual
propertyLabel: concentration at 0.25 hr
Number first, unit second.

For the molecule `CC/C=C\C/C=C\C/C=C\C/C=C\C/C=C\C/C=C\CCC(=O)NCC(C)(C)O` , give its reported concentration at 0.25 hr.
853 ng/g

* * *

Assay: pharmacokinetics, plasma and brain, after IP dose in mice
Assay type: in vivo
Settings: male, C57BL/6, mouse, plasma, ip, 50 mg/kg, plasma, 0.5 hr, male C57BL/6 mice, 3 animals, read-out: plasma Concentration Individual
propertyLabel: concentration at 0.5 hr
Number first, unit second.

For the compound `CC/C=C\C/C=C\C/C=C\C/C=C\C/C=C\C/C=C\CCC(=O)NCC(C)(C)O` , give its reported concentration at 0.5 hr.
5960 ng/mL

* * *

Assay: pharmacokinetics, plasma and brain, after IP dose in mice
Type: in vivo
Settings: mouse; brain; IP 50 mg/kg; male C57BL/6 mice
propertyLabel: Tmax (min)
Answers are plain numbers, in min.

For the compound `CC/C=C\C/C=C\C/C=C\C/C=C\C/C=C\C/C=C\CCC(=O)NCC(C)(C)O` , give its reported Tmax.
30

* * *

Assay: pharmacokinetics, plasma and brain, after IP dose in mice
Type: in vivo
Conditions: mouse; plasma; IP 50 mg/kg; male C57BL/6 mice
propertyLabel: Cmax (ng/mL)
Numbers only, in ng/mL.

For the compound CC/C=C\C/C=C\C/C=C\C/C=C\C/C=C\C/C=C\CCC(=O)NCC(C)(C)O [Compound 1] , give its reported Cmax.
5790

* * *

Assay: pharmacokinetics, plasma and brain, after IP dose in mice
Assay type: in vivo
Settings: male, C57BL/6, mouse, brain, ip, 50 mg/kg, brain, 0.5 hr, male C57BL/6 mice, 3 animals, read-out: brain Concentration Individual
propertyLabel: concentration at 0.5 hr (ng/g)
Numbers only, in ng/g.

For the molecule CC/C=C\C/C=C\C/C=C\C/C=C\C/C=C\C/C=C\CCC(=O)NCC(C)(C)O [Compound 1] , give its reported concentration at 0.5 hr.
5110

* * *

Experiment: pharmacokinetics, plasma and brain, after IP dose in mice
Format: in vivo
Details: mouse, brain and plasma; IP 50 mg/kg; male C57BL/6 mice; read-out: AUCbrain/AUCplasma
propertyLabel: Kp
Answers are plain numbers.

For the molecule CC/C=C\C/C=C\C/C=C\C/C=C\C/C=C\C/C=C\CCC(=O)NCC(C)(C)O [Compound 1] , give its reported Kp.
1.05

Provenance of the data: patent US9422308B2
